assay: A CellTox Green Cytotoxicity Assay to monitor cytotoxicity in HepG2 cells - 8 hour (AID 1224890); conditions: CellTox Green fluorescence; series mostly up to 76.8 µM; also: nearly all actives have a fitted effect of over 45% in size
Results filed as inconclusive are left out. Active and inactive are the calls of the source. Calls follow the shape of the dose curve; as a rule, active = well fitted activation curve with a large enough effect in the repeat runs; inconclusive = weak or mixed curves; inactive = flat fitted curve, though single readings scatter.
Log the outcome using a class from class 1 (active), class 0 (inactive)

Take a look at these entries with their results.
[
  {
    "compound": "c1ccc2cc(Nc3ccc(Nc4ccc5ccccc5c4)cc3)ccc2c1",
    "assigned-label": "class 0"
  },
  {
    "compound": "CCCC(=O)O",
    "assigned-label": "class 0"
  },
  {
    "compound": "CCCCC(CC)COP(=O)(OCC(CC)CCCC)OCC(CC)CCCC (stereo unspecified)",
    "assigned-label": "class 0"
  },
  {
    "compound": "O=C(OCc1ccccc1)c1ccccc1O",
    "assigned-label": "class 0"
  }
]

Query: // param item: CCCCC(CC)COC(=O)c1ccc(N(C)C)cc1 (stereo unspecified) ; yields the recorded call
Response: class 0

Query: // param item: `Nc1ccc(Nc2ccccc2)cc1` ; yields the recorded call
Response: class 0

Query: // param item: `CC(C)OC=O` ; yields the recorded call
Response: class 0

Query: // param item: `CC(=O)CC/C=C(\C)CCC=C(C)C` ; yields the recorded call
Response: class 0

Query: // param item: `O=P(O)(O)O` ; yields the recorded call
Response: class 0

* * *

experiment: qHTS assay to identify small molecule antagonists of the thyroid receptor (TR) signaling pathway (AID 743065); details: GH3.TRE-Luc, T3-stimulated luciferase inhibition, 23.5 h; series mostly up to 70.3 µM; also: nearly all actives have a fitted effect of over 55% in size
Results filed as inconclusive are left out. Activity calls are given as the source filed them. Calls follow the shape of the dose curve; as a rule, active = well fitted inhibition curve with a large enough effect in the repeat runs; inconclusive = weak or mixed curves; inactive = no such curve, though single readings can be large or run the other way.
Log the outcome using a class from TRUE (active), FALSE (inactive)

Query: // param item: `c1ccncc1` ; yields the recorded call
Response: FALSE

Query: // param item: `O=C(c1ccccc1)c1ccc(O)cc1O` ; yields the recorded call
Response: FALSE

Query: // param item: `COc1ccccc1/C=C/C=O` ; yields the recorded call
Response: TRUE

Query: // param item: `CCOCCOCCO` ; yields the recorded call
Response: FALSE

* * *

assay: qHTS assay for identifying genotoxic compounds that show differential cytotoxicity against isogenic chicken DT40 cell lines with known DNA damage response pathways - Rad54/Ku70 mutant cell line (AID 743015); conditions: DT40 Rad54/Ku70 mutant viability, CellTiter-Glo, 40 h; series mostly up to 66.8 µM; also: nearly all actives have a fitted effect of over 60% in size
Results filed as inconclusive are left out. Activity calls are given as the source filed them. Calls come from the whole dose curve; as a rule, active = well fitted cell-killing curve with a large enough effect in the repeat runs; inconclusive = weak or mixed curves; inactive = no such curve, though single readings can be large or run the other way.
Log the outcome using a class from active, inactive

[
  {
    "compound": "Cc1ccc(C(=O)c2cc(O)c(O)c([N+](=O)[O-])c2)cc1",
    "assigned-label": "active"
  },
  {
    "compound": "Brc1cc(Oc2cc(Br)c(Br)c(Br)c2Br)c(Br)c(Br)c1Br",
    "assigned-label": "inactive"
  },
  {
    "compound": "C=C(C)C(=O)OCCOC(=O)C(=C)C",
    "assigned-label": "inactive"
  },
  {
    "compound": "COc1c(Cl)c(Cl)c(Cl)c(Cl)c1Cl",
    "assigned-label": "inactive"
  },
  {
    "compound": "CCOC(=O)C(C#N)=C(c1ccccc1)c1ccccc1",
    "assigned-label": "active"
  },
  {
    "compound": "Cc1cccc([N+](=O)[O-])c1C",
    "assigned-label": "inactive"
  }
]

Query: // param item: `CC(C)OC=O` ; yields the recorded call
Response: inactive

Query: // param item: `c1ccc2cc(Nc3ccc(Nc4ccc5ccccc5c4)cc3)ccc2c1` ; yields the recorded call
Response: inactive

Query: // param item: CCCCC(CC)COCC1CO1 (centres undefined) ; yields the recorded call
Response: inactive

Query: // param item: `Nc1ccc(S(=O)(=O)Nc2cnc3ccccc3n2)cc1` ; yields the recorded call
Response: inactive

Query: // param item: `CC(CCC(=O)O)(c1ccc(O)cc1)c1ccc(O)cc1` ; yields the recorded call
Response: inactive

Query: // param item: `c1ccc2c(c1)c1cccc3ccc4cccc2c4c31` ; yields the recorded call
Response: inactive

Query: // param item: `CN(C)CCN(Cc1cccs1)c1ccccn1` ; yields the recorded call
Response: inactive

Query: // param item: `O=C(/C=C/C=C/c1ccc2c(c1)OCO2)N1CCCCC1` ; yields the recorded call
Response: active

Query: // param item: `O=C1c2cccc(O)c2C(=O)c2c(O)cccc21` ; yields the recorded call
Response: inactive
